src = patent US10780090B2

Property: inhibition at 0.111 µM; scope: individual molecules
Tested on: recombinant human SAE enzyme (Homo sapiens (Human))
Test: SAE HTRF enzyme assay
Type: biochemical
Applied conditions: Concentration 0.111 μM; read-out: Percent Inhibition
Please state the figure in %; there is no need to write the unit.

Example molecules with recorded inhibition at 0.111 µM:
Given Cc1cnn(Cc2csc(C(=O)c3cncnc3N[C@@H]3C[C@H](COS(N)(=O)=O)[C@@H](O)C3)c2)c1 , state its recorded inhibition at 0.111 µM.
98

Subsequent entry: Cc1sc(C(=O)c2cncnc2N[C@@H]2C[C@H](COS(N)(=O)=O)[C@@H](O)C2)cc1Sc1cccc(C(F)(F)F)c1
93

Subsequent entry: Cc1cccc(Cc2cc(C(=O)c3cncnc3N[C@@H]3C[C@H](COS(N)(=O)=O)[C@@H](O)[C@@H]3F)oc2C)c1
99

***
Given NS(=O)(=O)OC[C@H]1C[C@@H](Nc2ncncc2C(=O)c2cc(Cc3cccc(I)c3)cs2)C[C@@H]1O , state its recorded inhibition at 0.111 µM.
98

###

Property: IC50; scope: individual molecules
Tested on: recombinant human SAE enzyme (Homo sapiens (Human), UniProt Q9UBT2)
Sequence (Q9UBT2 whole entry): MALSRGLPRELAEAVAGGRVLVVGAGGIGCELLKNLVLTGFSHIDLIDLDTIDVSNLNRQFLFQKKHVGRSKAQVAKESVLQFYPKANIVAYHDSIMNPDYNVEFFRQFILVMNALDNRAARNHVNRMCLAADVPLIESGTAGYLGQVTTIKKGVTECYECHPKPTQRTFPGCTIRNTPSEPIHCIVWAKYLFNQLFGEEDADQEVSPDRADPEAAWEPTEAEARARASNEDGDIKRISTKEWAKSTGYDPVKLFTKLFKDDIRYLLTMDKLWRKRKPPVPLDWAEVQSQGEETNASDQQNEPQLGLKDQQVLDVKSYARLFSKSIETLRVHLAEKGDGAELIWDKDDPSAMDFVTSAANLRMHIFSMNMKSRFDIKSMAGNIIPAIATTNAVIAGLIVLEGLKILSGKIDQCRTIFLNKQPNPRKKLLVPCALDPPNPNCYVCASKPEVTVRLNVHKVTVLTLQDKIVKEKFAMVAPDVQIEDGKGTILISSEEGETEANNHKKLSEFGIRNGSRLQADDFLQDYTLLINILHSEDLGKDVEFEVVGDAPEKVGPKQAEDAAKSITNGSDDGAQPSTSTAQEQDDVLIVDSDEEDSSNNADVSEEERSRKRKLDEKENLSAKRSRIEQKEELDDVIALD
Sequence (Q9UBE0 whole entry partner): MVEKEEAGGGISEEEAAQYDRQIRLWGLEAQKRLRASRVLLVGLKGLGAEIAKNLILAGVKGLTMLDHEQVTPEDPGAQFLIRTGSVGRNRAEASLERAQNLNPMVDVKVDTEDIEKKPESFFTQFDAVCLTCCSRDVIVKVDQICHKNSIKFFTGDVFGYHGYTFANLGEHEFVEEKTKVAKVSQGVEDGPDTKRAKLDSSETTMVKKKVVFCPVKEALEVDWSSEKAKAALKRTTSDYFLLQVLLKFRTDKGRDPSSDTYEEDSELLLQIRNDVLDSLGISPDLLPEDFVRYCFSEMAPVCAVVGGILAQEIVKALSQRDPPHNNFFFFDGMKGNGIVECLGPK
Test: SAE HTRF enzyme assay
Type: biochemical
Applied conditions: SAE inhibition; class symbols, legend in nM

Given NS(=O)(=O)OC[C@H]1C[C@@H](Nc2ncncc2C(=O)c2cc([C@@H]3NCCc4ccc(Cl)cc43)c(Cl)o2)C[C@@H]1O (single isomer, unassigned) [I-299b] , state its recorded IC50.
< 10 nM

Subsequent entry: CN1Cc2cc(Cl)ccc2[C@@H]1c1csc(C(=O)c2cncnc2N[C@@H]2C[C@H](COS(N)(=O)=O)[C@@H](O)C2)c1 (mixture of isomers)
10 to 100 nM

Subsequent entry: NS(=O)(=O)OC[C@H]1C[C@@H](Nc2ncncc2C(=O)c2cc([C@@H]3OCC(F)(F)c4ccc(Cl)cc43)cs2)C[C@@H]1O.NS(=O)(=O)OC[C@H]1C[C@@H](Nc2ncncc2C(=O)c2cc([C@H]3OCC(F)(F)c4ccc(Cl)cc43)cs2)C[C@@H]1O (mixture of isomers)
< 10 nM

Subsequent entry: NS(=O)(=O)OC[C@H]1C[C@@H](Nc2ncncc2C(=O)c2ncc(Cc3ccccc3)s2)[C@H](O)[C@@H]1O
10 to 100 nM

Could you now look at the following molecule, please?
Given Cc1sc(C(=O)c2cncnc2N[C@@H]2C[C@H](COS(N)(=O)=O)[C@@H](O)C2)cc1[C@@H]1OCCc2cnc(Cl)cc21 (mixture of isomers) , state its recorded IC50.
< 10 nM

###

Tested on: recombinant human SAE enzyme (Homo sapiens (Human))
Test: SAE HTRF enzyme assay
Format: biochemical
Applied conditions: class symbols A/B/C
Property: IC50

Example compounds with recorded IC50:
Form: Entry = NS(=O)(=O)OC[C@H]1C[C@@H](Nc2ncncc2C(=O)c2cc(CN3CCCC(F)(F)C3)cs2)C[C@@H]1O [I-224] | System = recombinant human SAE enzyme (Homo sapiens (Human)) | IC50 = ____
100 to 1000 nM

Subsequent entry: NS(=O)(=O)OC[C@H]1C[C@@H](Nc2ncncc2C(=O)c2cc(Cc3cccc(Cl)c3)c(Cl)s2)C[C@@H]1O [I-107]
< 10 nM

Subsequent entry: NS(=O)(=O)OC[C@H]1C[C@@H](Nc2ncncc2C(=O)c2cc([C@@H]3NCc4ccc(Cl)cc43)c(Cl)s2)C[C@@H]1O (single isomer, unassigned) [I-262a]
< 10 nM

***
Form: Entry = NS(=O)(=O)OC[C@H]1C[C@@H](Nc2ncncc2C(=O)c2cc([C@@H]3NCCc4ccc(Cl)nc43)c(Cl)s2)C[C@@H]1O (single isomer, unassigned) [I-253b] | System = recombinant human SAE enzyme (Homo sapiens (Human)) | IC50 = ____
10 to 100 nM

Subsequent entry: NS(=O)(=O)OC[C@H]1C[C@@H](Nc2ncncc2C(=O)c2cc(CSc3ccccc3Cl)cs2)C[C@@H]1O [I-147]
< 10 nM

###

Tested on: recombinant human SAE enzyme (Homo sapiens (Human), UniProt Q9UBT2)
Test: SAE HTRF enzyme assay
Assay type: biochemical
Applied conditions: class symbols A/B/C
pIC50: −log10 of the molar value.
Property: pIC50; scope: individual compounds

Example compounds with recorded pIC50:
Given NS(=O)(=O)OC[C@H]1C[C@@H](Nc2ncncc2C(=O)c2cc([C@H](O)c3ccccc3)c(Cl)s2)C[C@@H]1O (mixture of isomers) [I-56] , state its recorded pIC50.
> 8.00

Subsequent entry: CN1CCC[C@]1(c1cccc(Cl)c1)c1csc(C(=O)c2cncnc2N[C@@H]2C[C@H](COS(N)(=O)=O)[C@@H](O)C2)c1 (mixture of isomers) [I-227]
6.00 to 7.00

Subsequent entry: NS(=O)(=O)OC[C@H]1C[C@@H](Nc2ncncc2C(=O)c2cc([C@@H]3OCCc4ccc(F)cc43)cs2)C[C@@H]1O (single isomer, unassigned) [I-267b]
> 8.00

Subsequent entry: Cc1oc(C(=O)c2cncnc2N[C@@H]2C[C@H](COS(N)(=O)=O)[C@@H](O)C2)cc1C1OCCc2ccccc21 (single isomer, unassigned) [I-272b]
> 8.00

Subsequent entry: CN(C)[C@H](c1cccc(Cl)c1)c1csc(C(=O)c2cncnc2N[C@@H]2C[C@H](COS(N)(=O)=O)[C@@H](O)C2)c1 (single isomer, unassigned) [I-153b]
> 8.00

Could you now look at the following compound, please?
Given NS(=O)(=O)OC[C@H]1C[C@@H](Nc2ncncc2C(=O)c2cc([C@@H](O)c3ccccc3Cl)c(Cl)s2)C[C@@H]1O (mixture of isomers) [I-86] , state its recorded pIC50.
> 8.00

###

Property: IC50; scope: individual molecules
Tested on: recombinant human SAE enzyme (Homo sapiens (Human), UniProt Q9UBT2)
Test: SAE HTRF enzyme assay
Format: biochemical
Applied conditions: class symbols A/B/C
Description: Example 215: SAE HTRF enzyme assay The SAE enzymatic reaction totals 50 μl and contains 50 mM HEPES Hemisodium (pH 7.5), 0.05% BSA, 5 mM MgCl2, 0.5 μM ATP, 250 μM GSH, 0.01 μM Ubc9-GST, 0.125 μM Sumo-Flag and 0.11 nM recombinant human SAE enzyme. […] After incubation for 2 hours at 24° C., quantification of FRET is performed on the Pherostar™ (BMG Labtech). Percentage inhibition values at a single concentration or enzyme inhibition (IC50) values are determined from those curves. […]

Given CN[C@H](c1cccc(Cl)c1)c1csc(C(=O)c2cncnc2N[C@@H]2C[C@H](COS(N)(=O)=O)[C@@H](O)C2)c1 (single isomer, unassigned) [I-47b] , state its recorded IC50.
< 10 nM

Subsequent entry: CC(N)(c1cccc(Cl)c1)c1csc(C(=O)c2cncnc2NC2CC(O)C(COS(N)(=O)=O)C2)c1 (mixture of isomers)
< 10 nM

***
Given NS(=O)(=O)OC[C@H]1C[C@@H](Nc2ncncc2C(=O)c2cc([C@@H]3NCc4ccc(Cl)cc43)c(Cl)s2)C[C@@H]1O (single isomer, unassigned) [I-262b] , state its recorded IC50.
< 10 nM

Subsequent entry: Cc1nn(Cc2csc(C(=O)c3cncnc3N[C@@H]3C[C@H](COS(N)(=O)=O)[C@@H](O)C3)c2)c2cnccc12
< 10 nM

Subsequent entry: NS(=O)(=O)OCC1CC(Nc2ncncc2C(=O)c2cc(C(O)c3cccc(Br)c3)cs2)CC1O (mixture of isomers)
< 10 nM

Subsequent entry: NS(=O)(=O)OC[C@H]1C[C@@H](Nc2ncncc2C(=O)c2cc(COc3ccccc3OC(F)(F)F)cs2)C[C@@H]1O
10 to 100 nM

Subsequent entry: CC(=O)c1coc(C(=O)c2cncnc2N[C@@H]2C[C@H](COS(N)(=O)=O)[C@@H](O)C2)c1
100 to 1000 nM

Subsequent entry: NS(=O)(=O)OC[C@H]1C[C@@H](Nc2ncncc2C(=O)c2cc(CO)cs2)C[C@@H]1O
100 to 1000 nM

Subsequent entry: NS(=O)(=O)OC[C@H]1C[C@@H](Nc2ncncc2C(=O)c2cc([C@H](O)c3cccc(Cl)c3)co2)C[C@@H]1O (single isomer, unassigned) [I-42b]
< 10 nM

Subsequent entry: Cc1sc(C(=O)c2cncnc2N[C@@H]2C[C@H](COS(N)(=O)=O)[C@@H](O)C2)cc1Cn1ccc(C#N)c1
10 to 100 nM

Subsequent entry: CN1Cc2ccc(Cl)cc2[C@@H]1c1csc(C(=O)c2cncnc2N[C@@H]2C[C@H](COS(N)(=O)=O)[C@@H](O)C2)c1 (single isomer, unassigned) [I-265b]
10 to 100 nM

Subsequent entry: NS(=O)(=O)OC[C@H]1C[C@@H](Nc2ncncc2C(=O)c2cc(C3NCCc4ccc(Cl)cc43)c(Cl)s2)C[C@@H]1O (single isomer, unassigned) [I-255a]
10 to 100 nM

Subsequent entry: Cc1sc(C(=O)c2cncnc2N[C@@H]2C[C@H](COS(N)(=O)=O)[C@@H](O)C2)cc1Cc1cccc(Cl)c1
< 10 nM
